# Target Or System: D(3) dopamine receptor (Homo sapiens) (UniProt P35462)
# Sequence (P35462 whole entry, looked up): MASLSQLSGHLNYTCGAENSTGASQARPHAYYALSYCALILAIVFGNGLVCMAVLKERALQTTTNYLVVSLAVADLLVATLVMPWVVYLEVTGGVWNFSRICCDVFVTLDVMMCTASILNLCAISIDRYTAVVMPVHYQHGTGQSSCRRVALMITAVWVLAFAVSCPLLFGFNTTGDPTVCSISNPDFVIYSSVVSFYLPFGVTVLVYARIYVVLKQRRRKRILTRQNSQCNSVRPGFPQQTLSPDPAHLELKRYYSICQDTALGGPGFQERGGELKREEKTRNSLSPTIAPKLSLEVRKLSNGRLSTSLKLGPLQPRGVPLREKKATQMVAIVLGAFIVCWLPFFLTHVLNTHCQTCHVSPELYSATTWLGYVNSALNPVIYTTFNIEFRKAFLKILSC
# Experiment Summary: qHTS of D3 Dopamine Receptor Antagonist: qHTS; also: % is scaled to controls: 0 for no effect and ±100 for the full control effect
# Measurement Parameters: D3R cells, DiscoveRx beta-arrestin luminescence, antagonist mode; hits give low values
Among all 360,000 compounds or so, about 9,100 (2.5%) were called active. Another 4% or so got no clear call; they are omitted. What follows is part of a selection rich in actives, with near analogues and random picks from the rest.
Recorded Metric: max response, negative = inhibition

• C[C@H](CO)N1C[C@H](C)[C@@H](CN(C)Cc2ccc3c(c2)OCO3)OCc2cnnn2CCCC1=O = 9.24% (inactive)
• Cc1cccc(C(=O)NC2CCN(CC(=O)Nc3cccc(Cl)c3)CC2)c1 = -13.9% (inactive)
• CCc1nc2ccc(C(=O)NCCNC(C)=O)cn2c1N(CC)Cc1cccc(Br)c1 = 48.8% (inactive)
• COc1cc(COCC(O)CN2CCN(Cc3ccc4c(c3)OCO4)CC2)cc(OC)c1OC (stereo not given) = -12.9% (inactive)
• NC(c1csc(NC(=O)Nc2cccc(C(F)(F)F)c2)n1)C1CCCCC1 (stereo not given) = 13.3% (inactive)

----------
# Target Or System: D(3) dopamine receptor (Homo sapiens)
# Experiment Summary: qHTS of D3 Dopamine Receptor Antagonist: qHTS; also: % is scaled to controls: 0 for no effect and ±100 for the full control effect
# Measurement Parameters: D3R cells, DiscoveRx beta-arrestin luminescence, antagonist mode
Screen size: about 360,000 compounds; about 9,100 (2.5%) were called active. Another 4% or so got no clear call; they are omitted. No stated cut-off is given here; in the data, active means max response below about -50%; inconclusive means no clear call, values can overlap the other calls; inactive means above that. Shown is part of a subset that was picked to be rich in actives.
Classes used: Yes = active, No = inactive

- Cc1cc(S(=O)(=O)Nc2ccc(C(=O)NCC(c3ccco3)N3CCCC3)cc2)ccc1F (configuration not stated): No
- CCC1CCC/C1=N\NC(=O)c1ccc(Cl)cc1 (configuration not stated): No
- COc1ccc(NC(=O)c2ccc(C#CC(C)(C)O)cc2)cc1: No
- COc1ccc(NC(=O)COC(=O)C2COc3ccccc3O2)cc1 (configuration not stated): No
- COc1ccc(NC(=O)CSc2nc(C)cs2)cc1: No
- CCOc1cc(/C=N/NC(=O)c2ccncc2)cc(Br)c1O: No
- CC1CN(C(=O)CCC(=O)NC2CCN(Cc3ccccc3)CC2)c2ccccc2O1 (configuration not stated): No
- COc1ccc(-c2cc(NC=O)c3ncc(-c4cc(OC)c(OC)c(OC)c4)n3c2)c(OC)c1: No
- Cc1sc2ncnc(SCC(=O)NC3CCS(=O)(=O)C3)c2c1C (configuration not stated): No
- OC[C@@H]1CN(Cc2ccc(F)cc2)C[C@H](n2cnc3c(NC4CCCC4)ncnc32)O1: No
- CCOC(=O)c1ccc2[nH]c(C)c(CN3CCN(C)CC3)c(=O)c2c1: No
- CC1CN(C(=O)CCC(=O)NCCCN2CCC(Cc3ccccc3)CC2)c2cc(Cl)ccc2O1 (configuration not stated): Yes
- CCOCCC(=O)Nc1ccc2c(c1)c(=O)n(C)n2-c1ccc2ccccc2c1: No
- Cc1[nH]c2ccc(C(=O)N3CCN(C)CC3)cc2c1C: Yes
- COc1cc(C(=O)NCC(c2ccco2)N2CCCC2)ccc1OCc1ccccc1 (configuration not stated): No
- COC(=O)CCNC(=O)c1ccc2[nH]c(C)c(C)c2c1: No
- CC1CN(C(=O)CCC(=O)NCc2cccnc2)c2ccccc2O1 (configuration not stated): No
- COC(=O)[C@@]1(Cc2ccc(OC)cc2)[C@H]2c3cc(C(=O)N4CCCC4)n(Cc4ccc(OC(F)(F)F)cc4)c3C[C@H]2CN1C(=O)c1ccccc1: No
- COc1ccc(C(CNC(=O)c2cccnc2SC)N2CCOCC2)cc1 (configuration not stated): No
- CC1CCCN(CC(=O)Nc2cc(Cl)ccc2Oc2ccccc2)C1 (configuration not stated): No
- COc1ccc(CN2CC(C(=O)NCCN3CCN(c4ccccc4F)CC3)CC2=O)cc1 (configuration not stated): No
- Cc1c(C(=O)NCC(c2ccco2)N2CCCC2)oc2ccc(Cl)cc12 (configuration not stated): Yes

----------
# Target Or System: D(3) dopamine receptor (Homo sapiens) (UniProt P35462)
# Experiment Summary: qHTS of D3 Dopamine Receptor Antagonist: qHTS; also: % is scaled to controls: 0 for no effect and ±100 for the full control effect
# Measurement Parameters: D3R cells, DiscoveRx beta-arrestin luminescence, antagonist mode
About 9,100 (2.5%) of roughly 360,000 compounds were called active. Another 4% or so got no clear call; they are omitted. Rule as the data show it: active = max response below about -50%; inconclusive = no clear call, values can overlap the other calls; inactive = above that. Only a selection was taken, and actives are over-represented in it overall.
Classes used: active, inactive

* CC(C)(C)NC(=O)C(CCc1ccccc1)n1c(=O)c(-c2ccccc2)nc2ccccc21 (stereo not given) | active
* CSCCC(C(=O)NC(C)(C)C)n1c(-c2ccccc2)nc2ccccc21 (stereo not given) | inactive
* Cc1ccc(-c2nc(CS(=O)CC(=O)NC3CCCC3)c(C)o2)cc1 (stereo not given) | inactive
* CC(=O)Nc1cccc(-c2ccnc3c2CC(C)(C(=O)NCc2ccco2)O3)c1 (stereo not given) | inactive
* O=[N+]([O-])c1c(NCCO)cc(Sc2nc3ccccc3s2)c2nonc12 | active
* CC(C)CCNC(=O)c1[nH]c(C(F)(F)F)nc1-c1ccccc1 | inactive
* Cc1cc(NC(=O)CSCc2nc(-c3cccc(Cl)c3)oc2C)no1 | inactive
* COc1ccc(NC(=O)CSc2nnnn2-c2cccc(OC)c2)cc1 | inactive
* CCCCCCN1C[C@@H](O)[C@H](n2cc(COC(=O)c3ccccc3)nn2)C[C@@H]1c1ccc(Cl)cc1 | inactive
* Cc1ccc(-c2nc(CSCC(=O)NC3CCN(Cc4ccccc4)CC3)c(C)o2)cc1 | active

----------
# Target Or System: D(3) dopamine receptor (Homo sapiens) (UniProt P35462)
# Experiment Summary: qHTS of D3 Dopamine Receptor Antagonist: qHTS; also: % is scaled to controls: 0 for no effect and ±100 for the full control effect
# Measurement Parameters: D3R cells, DiscoveRx beta-arrestin luminescence, antagonist mode
About 9,100 (2.5%) of roughly 360,000 compounds were called active. Not shown: some 4% with an inconclusive outcome. Cut-off read from the data, not from the text of the source: active = max response below about -50%; inconclusive = no clear call, values can overlap the other calls; inactive = above that. The sample holds actives, similar compounds and a random draw of the others, so the mix is not that of the screen.
Classes used: active, inactive

- O=C1[C@H]2[C@@H](c3ccc(Cl)cc3)N3C(=O)N(c4cccc(F)c4)C(=O)[C@@]3(Cc3ccccc3)[C@H]2C(=O)N1C1CCCCC1: inactive
- S=C(NN=C1CCN(Cc2ccccc2)CC1)NC1CCCCC1: inactive
- CC(C)(C)C(=O)NNC(=O)c1ccc(Oc2cc(Cl)cc(Cl)c2)o1: inactive
- Cc1cccc(N2C(=O)N3[C@H](c4ccc(F)cc4)[C@@H]4C(=O)N(C5CCCCC5)C(=O)[C@@H]4[C@]3(Cc3ccccc3)C2=O)c1: active
- CCNC(=S)NNC(=O)C1CCN(Cc2ccccc2)CC1: inactive
- O=C(NC1CCN(Cc2ccccc2)CC1)c1cc(Br)c(Br)[nH]1: active
- CC[C@@]12C(=O)N(c3ccccc3)C(=O)N1[C@H](c1ccc(Br)cc1)[C@@H]1C(=O)N(C(C)(C)C)C(=O)[C@@H]12: active
- S=C(NCCCc1ccccc1)Nc1ccc(Br)cc1: inactive
- COc1ccc([C@@H]2[C@@H]3C(=O)N(C(C)(C)C)C(=O)[C@@H]3[C@]3(Cc4ccccc4)C(=O)N(c4cccc(Br)c4)C(=O)N23)cc1: inactive

----------
# Target Or System: D(3) dopamine receptor (Homo sapiens) (UniProt P35462)
# Experiment Summary: qHTS of D3 Dopamine Receptor Antagonist: qHTS; also: % is scaled to controls: 0 for no effect and ±100 for the full control effect
# Measurement Parameters: D3R cells, DiscoveRx beta-arrestin luminescence, antagonist mode
The whole screen tested about 360,000 compounds, of which about 9,100 (2.5%) were called active. About 4% were inconclusive and are not listed. Cut-off read from the data, not from the text of the source: active = max response below about -50%; inconclusive = no clear call, values can overlap the other calls; inactive = above that. This is one part of a sample in which actives are shown more often than they occur.
Classes used: active, inactive

• COc1ccc(S(=O)(=O)NC(=O)C2(C)CCN2C(=O)c2ccccc2CCc2ccccc2)cc1 (stereo unspecified) = inactive
• O=C(CSc1ncn[nH]1)NCc1ccc2c(c1)OCO2 = inactive
• CCc1nc2c(OCc3ccc(C(F)(F)F)cc3)cccn2c1N(C)C(=O)CC(C)C = inactive
• CC1(C)OC(=O)C2=C(C[C@@H](C3CC3)O[C@H]2c2ccc(Cl)cc2)O1 = inactive
• Nc1nc(CSc2nnnn2-c2ccccc2)nc(Nc2ccccc2)n1 = inactive
• COc1ccc(C2C(C#N)=C(N)Oc3n[nH]c(C)c32)cc1CN1CCN(c2ccc(F)cc2)CC1 (stereo unspecified) = active
• Cc1ccc2c(c1)C1CN(C)CCC1N2S(=O)(=O)c1cccc(F)c1 (stereo unspecified) = active
• CC(=O)c1cccc(-c2cnc3c(NC=O)cc(-c4cccc(C(=O)N(C)C)c4)cn23)c1 = inactive
• Cc1cccc(N(CC(=O)N2CCCC2)S(C)(=O)=O)c1C = inactive
• O=S1(=O)CC(N2CCSCC2)CN1Cc1cn(Cc2cccc(Cl)c2)nn1 (stereo unspecified) = inactive
• Cc1ccc(-c2c(N)nc3ncccn23)cc1 = inactive
• COc1ccccc1-n1c(C)nc2cc(C(=O)NCc3ccc4c(c3)OCO4)ccc21 = active
• OC(c1ccc(Cl)c(F)c1)c1ncc(-c2ccccc2Cl)[nH]1 (stereo unspecified) = inactive
• COc1ccccc1CN1CCCC(N2CCN(c3ccc(F)cc3)CC2)C1 (stereo unspecified) = inactive
• CCN(CC)c1ccc(/C=N/Nc2nc(C)cc(C)n2)c(O)c1 = active
• O=S(=O)(c1ccccc1)c1nc(-c2ccccc2)oc1NCCCN1CCOCC1 = active
• CCSC1=C(C#N)C(=O)n2c1cc1c2CCCC1 = active
• CCOc1cc(/C=N/Nc2cc(C)nc3ccc(C)cc23)ccc1O = inactive
• COc1ccc(/C=N/N=C/c2c[nH]c(=O)c(C#N)c2Nc2ccccc2)cc1 = inactive
• CCN(CC)CCNC(=O)c1cc(S(C)(=O)=O)ccc1OC = active
• Cc1ccc2c(c1)C1CN(C)CCC1N2C(=S)Nc1ccc(OC(F)F)cc1 (stereo unspecified) = inactive
• COc1cccc2c1C(=O)c1c(O)c3c(c(O)c1C2=O)CC(O)(C(C)=NNC(=O)c1ccc(Cl)c(Cl)c1)CC3OC1CC(N)C(O)C(C)O1 (stereo unspecified) = active
• COC(=O)[C@]12CCCCC=C1N(Cc1ccc3c(c1)OCO3)C(=O)[C@H](CC(=O)N1CCOCC1)C2 = inactive
• Cc1ccc(C(=O)N/C(=C/c2ccc(-c3cccc([N+](=O)[O-])c3)o2)C(=O)NCCCN(C)C)cc1 = inactive
• Cc1ccc(C)c(C(O)c2ncc(-c3cccc4ccccc34)[nH]2)c1 (stereo unspecified) = inactive
• O=S(=O)(c1ccc(Br)cc1)c1nc(-c2ccccc2)oc1N1CCOCC1 = inactive
• CC(C)C[C@H]1CNC(=S)N1C[C@H]1CCCN1C[C@H](Cc1ccc(O)cc1)N1C[C@H](Cc2ccc(O)cc2)N(CC2CCCCC2)C1=S = inactive
• COc1ccc(NC(=O)C/C(C)=N/NC(=O)c2cnccn2)cc1Cl = inactive
• CCCCn1nnnc1C(c1ccccc1)N1CCN(c2ccccc2OC)CC1 (stereo unspecified) = inactive
• COc1ccc2[nH]cc(CCN3C(=O)c4ccc(C(=O)O)cc4C3=O)c2c1 = inactive
• COc1ccccc1CNC(=O)c1cc(-c2cc(Cl)ccc2C)n[nH]1 = inactive
• COc1cccc(C(NC(C)=O)c2nc(-c3ccccc3OC)cs2)c1 (stereo unspecified) = inactive
• O=C(Nc1ccccc1)Oc1cccc2cccnc12 = inactive
• CCOC(=O)[C@]12CCCC=C1N(CCC1=CCCCC1)C(=O)[C@H](CC(=O)N1CCSCC1)C2 = inactive
• Cc1ccc(CN2CC(N3CCC(Cc4ccccc4)CC3)CS2(=O)=O)cc1 (stereo unspecified) = inactive
• COc1ccc(-c2[nH]nc3c2C(c2ccncc2)C(C#N)=C(N)O3)cc1 (stereo unspecified) = inactive
• O=C(CCN1CCCCC1)N=Nc1c(O)[nH]c2ccccc12 = active
• CCN(CC)c1ccc(/C=N/NC(=O)c2cnccn2)c(O)c1 = active
• COC(=O)[C@@]12C[C@@H](CC(=O)NCc3cccc(C(F)(F)F)c3)C(=O)N(Cc3ccco3)C1=CCC(C)(C)C2 = inactive
• CCSc1ncnc2c(C#N)c3n(c12)CCCCC3 = inactive
• C/C=C(\C)C(=O)NCCN1C2=NC[C@H](Cc3ccc(O)cc3)N2C[C@@H]1Cc1ccc(OC)cc1 = inactive
